Just for reference, ChEMBL document CHEMBL1154168 is where these values come from.

# collection of pEC50 values tested on Peroxisome proliferator-activated receptor gamma (Homo sapiens, UniProt P37231)
# Sequence (P37231 whole entry): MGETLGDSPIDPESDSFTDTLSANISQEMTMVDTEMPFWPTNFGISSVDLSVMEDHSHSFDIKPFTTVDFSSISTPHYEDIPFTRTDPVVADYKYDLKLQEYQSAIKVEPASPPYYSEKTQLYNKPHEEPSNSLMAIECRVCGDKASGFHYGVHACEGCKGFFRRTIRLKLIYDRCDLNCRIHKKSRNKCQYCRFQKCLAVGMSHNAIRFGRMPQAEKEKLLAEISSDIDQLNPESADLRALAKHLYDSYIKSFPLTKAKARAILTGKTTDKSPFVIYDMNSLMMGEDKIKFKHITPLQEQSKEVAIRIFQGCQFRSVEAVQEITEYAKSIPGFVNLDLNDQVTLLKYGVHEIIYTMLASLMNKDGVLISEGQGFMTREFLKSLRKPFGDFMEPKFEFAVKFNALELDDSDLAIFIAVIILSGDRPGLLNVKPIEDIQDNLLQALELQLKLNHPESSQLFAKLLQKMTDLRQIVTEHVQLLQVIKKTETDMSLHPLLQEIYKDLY
Scale: pEC50 equals -log10([C]), with [C] in mol/L.

Prompt: Name the reported pEC50 value associated with the compound O=C(O)C(Cc1ccccc1)Oc1ccc(CSc2ccccc2)cc1 (racemic)
Response: 6.40

Prompt: Query O=C(Cc1ccccc1)c1ccc(OC(Cc2ccccc2)C(=O)O)cc1 (racemic) next
Response: 5.04

Prompt: Query O=C(O)C(Cc1ccccc1)Oc1ccc(COc2ccccc2)cc1 (racemic) next
Response: 5.52

Prompt: Query O=C(O)C(Cc1ccccc1)Oc1ccc(OCc2ccccc2)cc1 (racemic) next
Response: 5.62

Prompt: Query O=C(O)[C@H](Cc1ccccc1)Oc1ccc(CCc2ccccc2)cc1 next
Response: 6.40

Prompt: Query O=C(O)[C@H](Cc1ccccc1)Oc1ccc(Cc2ccccc2)cc1 next
Response: 6.24

Prompt: Query O=C(O)C(Cc1ccccc1)Oc1ccc(Cc2ccccc2)cc1 (racemic) next
Response: 6.24

Prompt: Query O=C(O)C(Cc1ccccc1)Oc1ccc(SCc2ccccc2)cc1 (racemic) next
Response: 5.85

Prompt: Query O=C(O)[C@@H](Cc1ccccc1)Oc1ccc(CCc2ccccc2)cc1 next
Response: 5.80

Prompt: Query O=C(O)C(Cc1ccccc1)Oc1ccc(NCc2ccccc2)cc1 (racemic) next
Response: 4.89
